- Tested on: Malme-3M
- Test: NCI tumour cell line growth inhibition, 48 h
The source made the active and inactive calls. Cut-off read from the data, not from the text of the source: active = GI50 up to about 1.1 µM and inactive = higher. Residues, ends and D or L forms follow the SMILES beside them. *: point of attachment. Boc = CC(C)(C)OC(=O)*; Bz = O=C(c1ccccc1)*
Classes used: class 1 (active), class 0 (inactive)

[[record]]
molecule = "CC(NC(=O)C(Cc1ccc(OC(=O)c2ccccc2)cc1)NC(=O)OC(C)(C)C)C(=O)NC(Cc1ccccc1)C(=O)NCC(N)=O (configuration not stated) (Boc-Y(Bz)AFG-NH2; configuration not given here)"
target_desc = "Malme-3M"
qualitative_label = "class 0"

[[record]]
molecule = "COC(=O)/C(C)=C/[N+](=O)[O-]"
target_desc = "Malme-3M"
qualitative_label = "class 0"

[[record]]
molecule = "O=C1C(Cl)C(c2ccc(O)cc2)N1n1cnc2ccccc2c1=O (configuration not stated)"
target_desc = "Malme-3M"
qualitative_label = "class 0"

[[record]]
molecule = "CCOC(=O)NC(=O)c1cn(CCCCCCOC(=O)NCCCCCCNC(=O)OCCCCCCn2cc(C(=O)NC(=O)OCC)c(=O)[nH]c2=O)c(=O)[nH]c1=O"
target_desc = "Malme-3M"
qualitative_label = "class 0"

[[record]]
molecule = "O=C1CC(CC(O)[C@@H]2CCCC[C@@H]2O)CC(=O)N1c1ccccc1 (some centres not stated)"
target_desc = "Malme-3M"
qualitative_label = "class 0"

[[record]]
molecule = "CN(C)C(=O)OC(Cn1cncn1)c1ccc(Cl)cc1Cl (configuration not stated)"
target_desc = "Malme-3M"
qualitative_label = "class 0"

[[record]]
molecule = "CC1(c2ccc(Cl)cc2)N=C(NCCO)c2ccccc21 (configuration not stated)"
target_desc = "Malme-3M"
qualitative_label = "class 0"

[[record]]
molecule = "Cc1ccc(C2=Nn3c(nc4sc(C)c(C)c4c3=O)SC2)cc1"
target_desc = "Malme-3M"
qualitative_label = "class 0"

[[record]]
molecule = "COc1cc(C2c3cc4c(cc3[C@@H](NCCN(C)C)C3COC(=O)[C@H]23)OCO4)cc(OC)c1O (some centres not stated)"
target_desc = "Malme-3M"
qualitative_label = "class 1"

[[record]]
molecule = "O=C1c2ccccc2C(=O)c2sc(Nc3ccccc3Cl)nc21"
target_desc = "Malme-3M"
qualitative_label = "class 0"

[[record]]
molecule = "CSc1ccc(-c2cc(-c3nc4ccccc4[nH]3)no2)cc1"
target_desc = "Malme-3M"
qualitative_label = "class 0"

[[record]]
molecule = "O=C1/C(=C/c2cccc([N+](=O)[O-])c2)N=C(c2ccccc2)N1c1nc2ccc(Sc3ccccc3)cc2[nH]1"
target_desc = "Malme-3M"
qualitative_label = "class 0"


----------
- Tested on: NCI-H23
- Test: NCI tumour cell line growth inhibition, 48 h
Activity calls are given as the source filed them. Cut-off read from the data, not from the text of the source: active = GI50 up to about 1.1 µM and inactive = higher.
Classes used: active, inactive

[[record]]
molecule = "O=S(=O)(SC1=NCCN1)c1cccc2ccccc12"
qualitative_label = "inactive"

[[record]]
molecule = "COc1ccccc1NS(=O)(=O)c1cc(C(C)(C)C)ccc1OCCOc1ccc(C(C)(C)C)cc1S(=O)(=O)Nc1ccccc1OC"
qualitative_label = "inactive"

[[record]]
molecule = "COc1ccc(C2C(C=O)C(N3CCN(C)CC3)=Nc3nc4ccccc4n32)cc1 (stereo unspecified)"
qualitative_label = "inactive"

[[record]]
molecule = "O=C1O/C(=C\\C=C\\CO)C=C1/C=C/CO [LISSOCLINOLIDE]"
qualitative_label = "inactive"

[[record]]
molecule = "COc1ccc(S(=O)(=O)N/N=C/CN2C(=O)c3ccccc3C2=O)cc1OC"
qualitative_label = "inactive"

[[record]]
molecule = "CCN1C(=O)N2C(OC)c3ccccc3C(Br)C2(OC)C1=O (stereo unspecified)"
qualitative_label = "inactive"

[[record]]
molecule = "N#Cc1cnc(-n2[nH]c3c(c2=O)CCCC3)[nH]c1=O"
qualitative_label = "inactive"

[[record]]
molecule = "CCCCCCCCCCCCCC(=S)N/C=C/OC"
qualitative_label = "inactive"

[[record]]
molecule = "CC(C)(C)c1ccc(OCCOCCOc2ccc(C(C)(C)C)cc2S(N)(=O)=O)c(S(N)(=O)=O)c1"
qualitative_label = "inactive"

[[record]]
molecule = "COC(=O)c1c(O)ccc2c1c1c(n2Cc2cc(OC)cc(OC)c2)C(=O)c2ccccc2C1"
qualitative_label = "inactive"

[[record]]
molecule = "CCOCC(=O)N[C@H]1CCc2cc(OC(=O)COCC)c(OC)c(OC)c2-c2ccc(SC)c(=O)cc21"
qualitative_label = "active"

